Values compiled from patent US6124323A.

Catalogue of IC50 values
ASSAYED SYSTEM: NMDA receptor subunits 1A/2A (Rattus norvegicus, UniProt P35439+Q00959)
Construct: clones from Dr. P. H. Seeburg)
Sequence (Q00959 20-1464 limits assumed, other chains not shown): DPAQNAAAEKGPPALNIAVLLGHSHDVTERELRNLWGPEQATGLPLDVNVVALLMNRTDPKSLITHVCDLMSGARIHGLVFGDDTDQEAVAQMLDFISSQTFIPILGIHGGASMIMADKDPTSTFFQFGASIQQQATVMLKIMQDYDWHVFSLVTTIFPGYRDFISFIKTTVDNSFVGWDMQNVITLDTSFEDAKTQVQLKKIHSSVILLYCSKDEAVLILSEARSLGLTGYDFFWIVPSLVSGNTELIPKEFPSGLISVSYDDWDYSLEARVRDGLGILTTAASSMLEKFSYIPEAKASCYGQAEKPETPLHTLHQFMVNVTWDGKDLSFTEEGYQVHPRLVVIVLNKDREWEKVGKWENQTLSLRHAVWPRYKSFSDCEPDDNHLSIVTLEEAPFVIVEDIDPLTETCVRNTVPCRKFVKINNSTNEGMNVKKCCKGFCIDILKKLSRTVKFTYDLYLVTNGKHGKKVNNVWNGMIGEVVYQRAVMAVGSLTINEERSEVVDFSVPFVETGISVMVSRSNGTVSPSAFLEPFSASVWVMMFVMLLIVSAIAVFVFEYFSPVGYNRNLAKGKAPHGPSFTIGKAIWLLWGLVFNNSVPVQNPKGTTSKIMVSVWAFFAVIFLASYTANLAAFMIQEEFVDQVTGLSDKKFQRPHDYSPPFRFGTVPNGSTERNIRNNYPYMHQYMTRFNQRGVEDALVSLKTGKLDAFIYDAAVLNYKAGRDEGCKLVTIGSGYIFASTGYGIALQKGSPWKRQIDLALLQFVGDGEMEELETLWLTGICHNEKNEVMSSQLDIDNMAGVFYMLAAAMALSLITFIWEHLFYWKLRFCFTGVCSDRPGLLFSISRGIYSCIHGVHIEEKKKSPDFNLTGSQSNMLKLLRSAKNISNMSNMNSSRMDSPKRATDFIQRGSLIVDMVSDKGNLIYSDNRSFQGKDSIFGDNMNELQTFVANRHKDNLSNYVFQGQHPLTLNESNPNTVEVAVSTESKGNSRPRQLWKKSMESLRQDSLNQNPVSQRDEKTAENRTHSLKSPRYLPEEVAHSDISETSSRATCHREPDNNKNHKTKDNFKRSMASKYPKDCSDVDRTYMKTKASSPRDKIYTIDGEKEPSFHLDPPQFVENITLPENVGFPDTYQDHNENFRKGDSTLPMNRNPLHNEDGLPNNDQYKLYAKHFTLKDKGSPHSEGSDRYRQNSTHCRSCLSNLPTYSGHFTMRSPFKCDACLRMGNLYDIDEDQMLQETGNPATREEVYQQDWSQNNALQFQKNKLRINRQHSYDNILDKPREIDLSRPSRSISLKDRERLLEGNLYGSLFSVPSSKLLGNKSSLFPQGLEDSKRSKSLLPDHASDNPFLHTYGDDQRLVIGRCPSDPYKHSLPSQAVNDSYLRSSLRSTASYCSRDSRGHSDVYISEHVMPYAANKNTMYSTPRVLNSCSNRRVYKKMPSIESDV
ASSAY REMARKS: Electrophysiological assay at NMDA receptor subunits expressed in Xenopus oocytes, 1A/2A
MEASUREMENT SETUP: glutamate 100 μm and glycine 1-100 μm

O=C1Cc2cc(OCCN3CCC(Cc4ccccc4)CC3)ccc2N1 [Ex. 194]: > 300 µM
c1ccc(CC2CCN(CCOc3ccccc3)CC2)cc1 [Ex. 1, 4-Benzyl-1-(2-phenoxyethyl)piperidine]: > 100 µM

Query compound follows.
Please fill in: IC50 reported for O=C1Cc2cc(OCCN3CCC(Cc4ccc(F)cc4)CC3)ccc2N1 [Ex. 195] = > 300 µM
